Test: Antioxidant activity assessed as ABTS radical scavenging activity at 25 uM after 6 mins
Format: functional
Assay Metric: Activity (umolequiv/umol)

Oc1ccc(O)c(/C=N/c2ccc(OCc3ccccc3)cc2)c1
0.97
Oc1ccc(/C=N/c2ccc(OCc3ccccc3)cc2)c(O)c1O
0.67
Oc1cc(O)c(/C=N/c2ccc(OCc3ccccc3)cc2)c(O)c1
0.69
Oc1ccc(/C=C/c2cc(O)cc(O)c2)cc1
1.57
Oc1cccc(/C=N/c2ccc(OCc3ccccc3)cc2)c1O
0.6

====

Biological target: Amine oxidase [flavin-containing] A (Homo sapiens, UniProt P21397)
Sequence (P21397 whole entry): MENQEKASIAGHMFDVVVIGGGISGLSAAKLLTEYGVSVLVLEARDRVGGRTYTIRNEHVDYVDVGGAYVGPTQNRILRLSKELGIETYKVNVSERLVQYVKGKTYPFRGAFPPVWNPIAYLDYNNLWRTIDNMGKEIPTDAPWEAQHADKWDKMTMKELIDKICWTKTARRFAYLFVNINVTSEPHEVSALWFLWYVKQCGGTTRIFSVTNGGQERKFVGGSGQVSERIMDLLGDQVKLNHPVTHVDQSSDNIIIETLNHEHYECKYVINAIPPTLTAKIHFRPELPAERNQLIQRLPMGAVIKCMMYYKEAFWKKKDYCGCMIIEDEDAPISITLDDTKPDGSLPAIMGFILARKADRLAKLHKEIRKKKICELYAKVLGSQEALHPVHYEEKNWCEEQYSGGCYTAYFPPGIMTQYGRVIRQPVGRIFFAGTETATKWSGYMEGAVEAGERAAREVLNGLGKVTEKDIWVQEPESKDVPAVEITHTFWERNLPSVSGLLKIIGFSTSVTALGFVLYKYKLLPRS
pIC50: −log10 of the molar value.
Assay Metric: pIC50

Oc1cccc(/C=N/c2ccc(OCc3ccccc3)cc2)c1O
4.94
